# tgt: SARS-CoV-2病毒的S1蛋白的RBD (SARS-CoV-2, UniProt P0DTC2 319-541)
# procedureText: BLI (OctetRED96), antibody captured on AHC probe, RBD in solution from 100 nM in 3-fold dilutions, 1:1 global fit
measurementName: Kd (nM)
// note: answer is a bare numeric in nM

[in] Name the reported Kd value associated with the binder 单抗22H22 (antibody, V domains shown) VH: EVQLVESGGALIQPGGSLRLSCAASGLTVSSNYMTWVRQAPGKGLEWVSVIYSGGSTYYADSVKGRFTISRDNSKNTLYLQMNSLRAEDTAVYYCARGYGDYENYFDYWGQGTLVTVSS VL: AIQLTQSPSSLSASVGDRVTITCRASQGISSYLAWYQQKPGKAPKLLIYAASTLQGGVPSRFSGSGSGTDFTLTISSLQPEDFATYYCQHLWTFGQGTKVEIK
[out] 5.07
